procedureText: physchem
measurementContext: organic solvent or mixture, thermodynamic from solid, solubility in F1
resultType: solubility (mg/mL)
The reply should be a number in mg/mL, with the unit left off.

The reported solubility of the compound CC(=O)Nc1ccc(O)cc1 [APAP, acetaminophen, reference compound] was 12.8
